Molecular target: Endoribonuclease toxin MazF (Escherichia coli K-12, UniProt P0AE70)
Sequence (P0AE70 whole entry): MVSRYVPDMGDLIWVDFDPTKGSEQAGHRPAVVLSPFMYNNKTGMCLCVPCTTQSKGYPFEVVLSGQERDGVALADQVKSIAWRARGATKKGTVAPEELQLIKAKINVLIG
Test: substrate-only fluorescence increase artefacts – biochemical, single-stranded RNase substrate, counter-screen for MazEF activator project, dose response (AID 588502)
Format: functional
Activity calls are given as the source filed them.
Labels: true (1) = active, false (0) = inactive

compound | answer.label
Cc1[nH]c2ccccc2c1/C=C/c1nc2ccccc2c(=O)n1-c1ccc([N+](=O)[O-])cc1 | false (0)
CN(C)c1ccc(C=C2C=Cc3ccccc32)cc1 | false (0)
Cc1cc(/C=C2\C(=O)NC(=O)N(Cc3ccccc3)C2=O)c(C)n1C1CC1 | false (0)
Cc1cccc2cc3c(N)c(C(=O)N4CCc5ccccc54)sc3nc12 | false (0)
COc1ccc(CNC(=O)C(C#N)c2nc3ccccc3nc2N2CCCC2)cc1 (stereo unspecified) | true (1)
CSc1ccc(C2C(C(=O)c3ccco3)=C(O)C(=O)N2c2nnc(SC)s2)cc1 (stereo unspecified) | false (0)

====

Molecular target: Cytochrome P450 2D6 (Homo sapiens, UniProt P10635);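 also: CYP2D6 member of a cytochrome P450 panel assay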
Sequence (P10635 whole entry): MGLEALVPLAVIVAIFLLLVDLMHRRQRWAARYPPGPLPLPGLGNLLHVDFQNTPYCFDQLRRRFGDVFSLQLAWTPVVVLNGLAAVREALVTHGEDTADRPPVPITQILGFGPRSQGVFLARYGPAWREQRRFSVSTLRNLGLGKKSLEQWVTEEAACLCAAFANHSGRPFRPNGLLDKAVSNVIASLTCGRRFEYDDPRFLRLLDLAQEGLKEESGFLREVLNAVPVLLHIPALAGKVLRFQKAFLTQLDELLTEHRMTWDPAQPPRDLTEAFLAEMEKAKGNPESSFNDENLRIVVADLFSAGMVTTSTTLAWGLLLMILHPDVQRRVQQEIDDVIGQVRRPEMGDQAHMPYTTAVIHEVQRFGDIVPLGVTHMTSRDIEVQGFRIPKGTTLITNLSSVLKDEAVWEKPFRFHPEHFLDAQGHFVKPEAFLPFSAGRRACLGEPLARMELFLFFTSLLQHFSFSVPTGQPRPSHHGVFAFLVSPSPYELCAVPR
Reported AC50 values follow for various molecules

smiles.data | AC50
Cc1ccccc1-c1cc(-c2ccccc2O)on1 | 22.4 µM (inconclusive)
CNCCNS(=O)(=O)c1cccc2cnccc12 | 5.01 µM (inconclusive)
CS(=O)(=O)Nc1cccc(-c2ccc3ncnc(NCc4cccnc4)c3c2)c1 | 20 µM (inconclusive)
COC(=O)C/C=C\[C@@H](C)[C@@H](/C=N\O[C@@H](C)CN1CCCc2nc(C)c(C)cc21)OC | 2.51 µM (inconclusive)
Cc1c(C2CCN(CCc3ccccc3)CC2)noc1-c1ccc(Cl)cc1 | 1.58 µM (inconclusive)
O=C(CCCn1c(=S)[nH]c2ccc(Br)cc2c1=O)N1CCN(c2ccccn2)CC1 | 15.8 µM (inconclusive)

====

Target: UniProtKB O60755
Sequence (O60755 whole entry): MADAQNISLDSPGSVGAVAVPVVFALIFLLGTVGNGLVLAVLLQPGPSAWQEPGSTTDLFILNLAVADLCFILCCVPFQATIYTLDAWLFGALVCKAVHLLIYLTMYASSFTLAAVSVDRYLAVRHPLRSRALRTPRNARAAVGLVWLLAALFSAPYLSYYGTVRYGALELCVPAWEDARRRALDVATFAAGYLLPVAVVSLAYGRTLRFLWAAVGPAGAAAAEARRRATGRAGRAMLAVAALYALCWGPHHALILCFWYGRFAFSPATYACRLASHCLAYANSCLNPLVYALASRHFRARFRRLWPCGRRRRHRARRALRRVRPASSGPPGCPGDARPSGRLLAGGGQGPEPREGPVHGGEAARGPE
Test: Fluorescence-based cell-based primary high throughput dose response assay to identify antagonists of the Galanin Receptor 3 (GalR3).
Assay type: functional
Calls of active or inactive are those of the source.
Labels: 1.0 for active, 0.0 for inactive

smiles.data | answer.label
Cc1cc(C)c(CN2CCN(C(=O)Cn3cnc4c(OCc5ccccc5)ncnc43)CC2)c(C)c1 | 1.0
COc1ccc(-c2cn(-c3ccc(C)c(Cl)c3)c(S)n2)cc1OC | 0.0
COc1ccc(-c2csc(NC(=O)c3ccccc3NS(=O)(=O)c3ccc(F)c(F)c3)n2)cc1 | 1.0
Nc1nn2c(O)c3c(nc2c1N=Nc1ccccc1)CCCC3 | 1.0
C=CCNc1nc2c(c(=O)n(C)c(=O)n2C)n1CCCCCC | 1.0

====

Reported IC50 values follow for various compounds
Target: Aminopeptidase N (Plasmodium falciparum FcB1/Columbia, UniProt O96935)
Sequence (O96935 whole entry): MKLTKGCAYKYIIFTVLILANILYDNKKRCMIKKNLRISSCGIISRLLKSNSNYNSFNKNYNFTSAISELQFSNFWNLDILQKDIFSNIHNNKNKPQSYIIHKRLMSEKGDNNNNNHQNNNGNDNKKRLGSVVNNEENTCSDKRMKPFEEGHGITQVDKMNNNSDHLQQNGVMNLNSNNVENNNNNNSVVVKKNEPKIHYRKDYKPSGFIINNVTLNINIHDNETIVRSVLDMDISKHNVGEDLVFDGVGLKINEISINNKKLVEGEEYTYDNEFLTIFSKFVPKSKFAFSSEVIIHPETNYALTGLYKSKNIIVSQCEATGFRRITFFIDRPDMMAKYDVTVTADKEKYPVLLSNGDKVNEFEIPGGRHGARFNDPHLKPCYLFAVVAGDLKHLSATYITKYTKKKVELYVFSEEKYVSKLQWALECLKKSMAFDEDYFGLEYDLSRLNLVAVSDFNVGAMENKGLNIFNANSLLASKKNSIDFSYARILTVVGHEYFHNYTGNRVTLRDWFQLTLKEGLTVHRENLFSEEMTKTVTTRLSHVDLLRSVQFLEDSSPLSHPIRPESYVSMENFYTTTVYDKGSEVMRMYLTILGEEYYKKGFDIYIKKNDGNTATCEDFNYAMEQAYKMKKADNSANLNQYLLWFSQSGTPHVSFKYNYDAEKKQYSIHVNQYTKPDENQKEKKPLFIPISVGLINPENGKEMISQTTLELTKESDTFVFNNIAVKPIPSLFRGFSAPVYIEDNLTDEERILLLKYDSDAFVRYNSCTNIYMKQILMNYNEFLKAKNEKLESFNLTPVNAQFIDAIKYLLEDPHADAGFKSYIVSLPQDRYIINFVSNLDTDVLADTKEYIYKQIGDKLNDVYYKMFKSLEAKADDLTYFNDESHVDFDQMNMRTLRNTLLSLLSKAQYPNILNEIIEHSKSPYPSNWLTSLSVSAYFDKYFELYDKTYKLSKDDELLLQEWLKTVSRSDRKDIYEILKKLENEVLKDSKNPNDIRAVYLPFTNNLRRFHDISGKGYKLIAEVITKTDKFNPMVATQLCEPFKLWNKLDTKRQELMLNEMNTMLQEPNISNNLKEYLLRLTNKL
Assay: malaria alanyl aminopeptidase activity blockers – biochemical, fluorogenic H-Leu-NHMec substrate, 1536-well (AID 1445)
Parameters: species or system Plasmodium falciparum 3D7, 3D7
Calls of active or inactive are those of the source.
quantity.measured: IC50

compound | experimental.system | quantity.measured | reported.result
Cc1[nH]c2ccccc2c1/C=C1\SC(=S)N(c2cccc(C(=O)O)c2)C1=O | Aminopeptidase N (Plasmodium falciparum FcB1/Columbia, UniProt O96935) | IC50 | 55.9 µM (active)
O=C(O)c1ccc(NS(=O)(=O)c2ccc3c(c2)C2C=CCC2C(c2ccccc2F)N3)cc1 (centres undefined) | Aminopeptidase N (Plasmodium falciparum FcB1/Columbia, UniProt O96935) | IC50 | 2.75 µM (active)
Cc1ccc(C(=O)NCC(=O)OCC(=O)NC(C)c2ccccc2)s1 (centres undefined) | Aminopeptidase N (Plasmodium falciparum FcB1/Columbia, UniProt O96935) | IC50 | 39.6 µM (active)
NNC(=O)Cn1c(-c2nonc2N)nc2ccccc21 | Aminopeptidase N (Plasmodium falciparum FcB1/Columbia, UniProt O96935) | IC50 | 58.2 µM (active)

====

Reported AC50 values follow for various compounds
Target: DNA repair protein RAD52 homolog (Homo sapiens)
Sequence (P43351 whole entry): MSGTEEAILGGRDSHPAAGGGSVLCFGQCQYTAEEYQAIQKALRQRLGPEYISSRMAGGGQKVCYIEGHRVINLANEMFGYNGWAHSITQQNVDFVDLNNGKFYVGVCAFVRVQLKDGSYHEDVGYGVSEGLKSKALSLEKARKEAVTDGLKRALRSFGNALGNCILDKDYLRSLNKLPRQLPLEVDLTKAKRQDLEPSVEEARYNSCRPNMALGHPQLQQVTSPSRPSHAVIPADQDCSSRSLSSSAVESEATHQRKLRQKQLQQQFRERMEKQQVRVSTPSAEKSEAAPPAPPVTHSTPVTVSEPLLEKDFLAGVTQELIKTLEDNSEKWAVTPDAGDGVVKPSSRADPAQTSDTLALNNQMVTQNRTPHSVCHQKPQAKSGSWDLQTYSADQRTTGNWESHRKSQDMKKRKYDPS
Assay type: functional, biochemical
Activity calls are given as the source filed them.

smiles.data | AC50
CN1CCN(CCCNCc2cn(CCC#N)c3ccccc23)CC1 | 4.32 µM (active)
CC1=CC(=Cc2sc3ccccc3[n+]2C)C=C(C)O1.[O-][Cl+3]([O-])([O-])[O-] | 5.78 µM (active)
Cc1cc(-n2c(C)c3c(C)nnc(C)c3c2C)ccc1N | 8.66 µM (active)
C[n+]1ccc(/C=C/c2ccccc2O)c2ccccc21 | 19.1 µM (active)

====

Target: DNA dC->dU-editing enzyme APOBEC-3G (Homo sapiens, UniProt Q9HC16);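 also: Dose-response counterscreen measuring inhibition of APOBEC3G DNA deaminase activity, run while confirming APOBEC3A inhibitors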
Sequence (Q9HC16 whole entry): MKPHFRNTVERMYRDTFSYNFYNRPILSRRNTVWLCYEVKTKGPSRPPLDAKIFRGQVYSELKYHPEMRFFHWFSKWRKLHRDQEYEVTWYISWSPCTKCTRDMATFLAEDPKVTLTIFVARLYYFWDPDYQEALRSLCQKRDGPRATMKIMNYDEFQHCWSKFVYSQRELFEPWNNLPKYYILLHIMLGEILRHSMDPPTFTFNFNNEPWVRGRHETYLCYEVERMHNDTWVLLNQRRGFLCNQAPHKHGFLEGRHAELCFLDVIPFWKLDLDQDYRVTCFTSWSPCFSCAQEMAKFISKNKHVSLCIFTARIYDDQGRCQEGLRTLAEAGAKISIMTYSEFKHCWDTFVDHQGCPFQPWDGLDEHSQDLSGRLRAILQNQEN
Format: functional
Activity calls are given as the source filed them.

molecule | experimental.system | IC50
COC(=O)CCCCCCCCC(O)C[N+]1(C)CCOCC1 (stereo unspecified) | DNA dC->dU-editing enzyme APOBEC-3G (Homo sapiens, UniProt Q9HC16) | 3.49 µM (active)
COc1ccc2[nH]c(O)c(N=O)c2c1 | DNA dC->dU-editing enzyme APOBEC-3G (Homo sapiens, UniProt Q9HC16) | 4.41 µM (active)
O=C(CSc1nnnn1-c1ccccc1)N1CCc2ccccc21 | DNA dC->dU-editing enzyme APOBEC-3G (Homo sapiens, UniProt Q9HC16) | 4.32 µM (active)
CN1CCN(c2ccc(Cl)cc2NC(=O)CC2OC(=O)c3ccccc32)CC1 (stereo unspecified) | DNA dC->dU-editing enzyme APOBEC-3G (Homo sapiens, UniProt Q9HC16) | 2.9 µM (active)
CC(=O)c1ccc(S(=O)(=O)N2Cc3ccccc3CC2C(=O)O)cc1 (stereo unspecified) | DNA dC->dU-editing enzyme APOBEC-3G (Homo sapiens, UniProt Q9HC16) | 43.7 µM (active)
CCn1c(SCC(=O)NCc2ccccc2)nnc1C(CO)NC(=O)c1ccccc1 (stereo unspecified) | DNA dC->dU-editing enzyme APOBEC-3G (Homo sapiens, UniProt Q9HC16) | 4.48 µM (active)

====

Experiment: Luminescence Cell-Based Dose Retest to Confirm Inhibitors of Cancer Stem Cells. [Related pubchem assays (depositor defined):AID2717, AID2721]
Format: functional
Conditions: Homo sapiens
Activity calls are given as the source filed them.
Labels: t = active, f = inactive

smiles.data | answer.label
Cc1ccc(NCc2ccc([N+](=O)[O-])s2)cc1 | f
Cc1nn(Cc2ccccc2)c(C)c1C(=O)OCC(=O)c1cc(C)n(CC(F)(F)F)c1C | t
COC(=O)c1ccc(/C=C/c2c(-c3ccc(OC)cc3)oc3ccc(N4CCOCC4)cc23)cc1 | t
COc1ccc(-c2cc(C(F)(F)F)nc(S(C)(=O)=O)n2)cc1 | t
Cc1cc([N+](=O)[O-])nn1Cc1ccc(C(=O)N/N=C/c2ccc(O)cc2O)cc1 | t
CC1(C)Cc2c(c(N3CCOCC3)nc3sc4c(NN)ncnc4c23)CS1 | t

====

Reported EC50 values follow for various compounds
Molecular target: Peroxisome proliferator-activated receptor gamma/Nuclear receptor coactivator 1 (Homo sapiens)
Sequence (P37231 whole entry): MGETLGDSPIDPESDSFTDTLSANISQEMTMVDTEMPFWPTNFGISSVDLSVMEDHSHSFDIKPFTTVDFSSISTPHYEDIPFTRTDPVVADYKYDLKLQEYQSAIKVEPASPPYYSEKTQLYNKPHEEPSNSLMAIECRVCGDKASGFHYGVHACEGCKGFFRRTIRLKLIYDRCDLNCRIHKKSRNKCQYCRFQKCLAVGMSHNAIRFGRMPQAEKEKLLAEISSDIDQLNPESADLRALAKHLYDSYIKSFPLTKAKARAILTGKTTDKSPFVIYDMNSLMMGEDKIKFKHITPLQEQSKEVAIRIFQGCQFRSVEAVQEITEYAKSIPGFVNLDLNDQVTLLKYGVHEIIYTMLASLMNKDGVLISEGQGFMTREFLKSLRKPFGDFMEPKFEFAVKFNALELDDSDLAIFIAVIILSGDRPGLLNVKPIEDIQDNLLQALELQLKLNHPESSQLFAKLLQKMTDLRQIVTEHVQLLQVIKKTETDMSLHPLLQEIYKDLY
Sequence (Q15788 whole entry, further chain): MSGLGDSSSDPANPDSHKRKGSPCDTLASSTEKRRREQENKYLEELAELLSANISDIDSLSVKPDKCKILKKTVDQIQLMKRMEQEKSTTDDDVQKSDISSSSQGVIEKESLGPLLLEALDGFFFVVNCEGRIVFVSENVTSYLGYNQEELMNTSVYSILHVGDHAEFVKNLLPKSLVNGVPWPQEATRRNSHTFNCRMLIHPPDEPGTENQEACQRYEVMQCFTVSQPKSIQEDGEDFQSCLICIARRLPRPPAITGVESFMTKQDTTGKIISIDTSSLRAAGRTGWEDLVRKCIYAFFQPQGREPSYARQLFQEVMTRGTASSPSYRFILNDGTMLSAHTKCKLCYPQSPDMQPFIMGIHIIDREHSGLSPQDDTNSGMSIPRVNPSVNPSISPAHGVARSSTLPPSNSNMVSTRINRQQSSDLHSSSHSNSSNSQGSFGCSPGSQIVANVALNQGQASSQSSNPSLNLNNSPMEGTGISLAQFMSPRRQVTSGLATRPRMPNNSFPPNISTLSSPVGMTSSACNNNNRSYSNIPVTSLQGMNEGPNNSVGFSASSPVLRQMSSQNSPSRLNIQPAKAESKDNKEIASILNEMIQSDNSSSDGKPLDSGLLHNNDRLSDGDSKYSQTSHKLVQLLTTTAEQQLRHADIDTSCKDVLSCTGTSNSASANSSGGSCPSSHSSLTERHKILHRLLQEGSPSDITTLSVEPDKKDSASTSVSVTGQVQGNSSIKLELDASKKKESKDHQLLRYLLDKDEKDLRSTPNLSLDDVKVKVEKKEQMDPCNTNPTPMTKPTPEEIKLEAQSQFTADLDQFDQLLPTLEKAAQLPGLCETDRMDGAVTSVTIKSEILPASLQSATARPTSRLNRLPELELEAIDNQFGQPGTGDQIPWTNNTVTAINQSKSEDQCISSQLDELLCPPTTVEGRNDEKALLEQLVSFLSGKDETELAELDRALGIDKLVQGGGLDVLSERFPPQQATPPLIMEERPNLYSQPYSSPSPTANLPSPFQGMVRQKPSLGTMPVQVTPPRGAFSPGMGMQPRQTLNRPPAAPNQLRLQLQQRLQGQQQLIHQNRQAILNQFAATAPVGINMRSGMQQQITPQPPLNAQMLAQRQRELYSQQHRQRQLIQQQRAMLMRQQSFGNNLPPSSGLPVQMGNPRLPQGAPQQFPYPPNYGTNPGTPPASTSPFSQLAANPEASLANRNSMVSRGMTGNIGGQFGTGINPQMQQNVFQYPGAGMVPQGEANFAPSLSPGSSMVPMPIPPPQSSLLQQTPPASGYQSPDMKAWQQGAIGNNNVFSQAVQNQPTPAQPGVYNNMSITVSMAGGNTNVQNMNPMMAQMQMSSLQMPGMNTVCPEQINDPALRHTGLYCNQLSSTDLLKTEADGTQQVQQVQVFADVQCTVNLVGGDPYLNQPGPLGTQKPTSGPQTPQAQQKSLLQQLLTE
Assay: TR-FRET dose response biochemical High Throughput Screening assay for agonists of the steroid receptor coactivator 1 (SRC-1) recruitment by the peroxisome proliferator-activated receptor gamma (PPAR gamma): non-selective agonists. [Related pubchem assays (depositor defined):AID1300, AID1808, AID504735, AID631]
Assay type: protein assay
Active and inactive are the calls of the source.

compound | EC50
CSC1=NP(=S)(SC)N(C)c2nc3n(c21)CCC3 (stereo unspecified) | > 79.4 µM (inactive)
CCn1c(=O)cc(SCC(=O)Nc2ccc(OC)c(OC)c2)c2ccccc21 | > 79.4 µM (inactive)
COc1cccc(NC(=O)CSc2c3c(nc4ccccc24)CCCC3)c1 | > 79.4 µM (inactive)
N#Cc1cc2c(nc1SCc1ccccc1)CCCCC2 | > 8.82 µM (inactive)
COc1c(F)c(F)c(C(=O)Nc2ccc3oc(-c4ccncc4)nc3c2)c(F)c1F | 21.5 µM (inactive)
Cc1cn(S(=O)(=O)c2ccc(Br)c3ccccc23)cn1 | > 79.4 µM (inactive)

====

Reported IC50 values follow for various molecules
Biological target: Fatty acid synthase (Homo sapiens, UniProt P49327)
Experiment: inhibition of human FAS-TE enzyme activity – biochemical, endpoint fluorescence intensity, uHTS hits, dose response (AID 624327);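 also: fluorescence from hydrolysis of an O-methyl fluorescein acyl ester substrate by the enzyme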
Type: functional
Calls of active or inactive are those of the source.

molecule | IC50
O=C(COC(=O)c1cc([N+](=O)[O-])ccc1NCCO)Nc1cccc(S(=O)(=O)N2CCCC2)c1 | 6.67 µM (active)
CCCC(C)C(=O)Nc1cc([N+](=O)[O-])ccc1Cl (centres undefined) | 12.2 µM (active)
Cc1cc(C(C)(C)C)cc(C)c1COC(=O)CN1C(=O)NC2(CCCC2)C1=O | 15.8 µM (active)
O=C(NCCCCc1ccccc1)c1cc([N+](=O)[O-])cc([N+](=O)[O-])c1 | 12.4 µM (active)
